- TEST SYSTEM: Delta-type opioid receptor (Homo sapiens, UniProt P41143)
- Sequence (P41143 whole entry): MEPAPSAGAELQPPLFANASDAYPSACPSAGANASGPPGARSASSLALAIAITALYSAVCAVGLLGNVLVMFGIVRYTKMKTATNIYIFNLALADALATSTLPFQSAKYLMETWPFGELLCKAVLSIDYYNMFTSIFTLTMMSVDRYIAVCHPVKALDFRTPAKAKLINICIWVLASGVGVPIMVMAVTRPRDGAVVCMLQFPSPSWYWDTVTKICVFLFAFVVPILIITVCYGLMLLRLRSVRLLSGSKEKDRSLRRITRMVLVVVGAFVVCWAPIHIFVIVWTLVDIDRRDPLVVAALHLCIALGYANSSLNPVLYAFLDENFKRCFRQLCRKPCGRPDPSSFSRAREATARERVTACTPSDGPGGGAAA
- ASSAY REMARKS: Inhibition of binding of [3H]diprenorphine to cloned human Opioid receptor delta 1 expressed in CHO cell membrane;Range is between (1.7-2.3)
- Assay type: cell-based
EXPERIMENTAL READOUT: pKi
To interpret pKi, take it as minus log10 of a concentration measured in moles per litre.

Reported pKi (Delta-type opioid receptor (Homo sapiens, UniProt P41143)) for entry N[C@@H](Cc1ccc(O)cc1)C(=O)N[C@@H]1CSC[C@H](C(=O)O)NC(=O)[C@H](Cc2ccccc2)NC(=O)CNC1=O is 8.70

Entry source: ChEMBL document CHEMBL1135552
